Reported pIC50 values follow for various compounds
Test system: MCF7
test details: Growth inhibition of human MCF7 cells by MTT assay
Type: functional, cell-based
pIC50: −log10 of the molar value.
experimental endpoint: pIC50

INSERT INTO measurements (molecular_string, target_or_test_system, quantitative_readout) VALUES
  ('N#Cc1c(N=Cc2cccnc2)c(C(=O)Nc2ccc(Cl)cc2)n2c1CCC2', 'MCF7', 4.65),
  ('N#Cc1c(N=Cc2cccnc2)c(C(=O)Nc2ccccc2)n2c1CCC2', 'MCF7', 4.93),
  ('N#Cc1c(N=Cc2ccc3ccccc3c2)c(C(=O)Nc2ccc(Cl)cc2)n2c1CCC2', 'MCF7', 5.01),
  ('N#Cc1c(N=Cc2cccs2)c(C(=O)Nc2ccccc2)n2c1CCC2', 'MCF7', 5.16),
  ('N#Cc1c(N=Cc2ccc3ccccc3c2)c(C(=O)Nc2ccccc2)n2c1CCC2', 'MCF7', 5.24),
  ('N#Cc1c(/N=C/c2ccc([N+](=O)[O-])cc2)c(C(=O)Nc2cc(Cl)cc(Cl)c2)n2c1CCC2', 'MCF7', 5.10),
  ('Cc1ccc(NC(=O)c2c(N=Cc3cccs3)c(C#N)c3n2CCC3)cc1', 'MCF7', 5.27),
  ('N#Cc1c(N=Cc2ccco2)c(C(=O)Nc2ccccc2)n2c1CCC2', 'MCF7', 5.08),
  ('N#Cc1c(N=Cc2ccco2)c(C(=O)Nc2ccc(Cl)cc2)n2c1CCC2', 'MCF7', 4.80),
  ('N#Cc1c(N=Cc2cccs2)c(C(=O)Nc2ccc(Cl)cc2)n2c1CCC2', 'MCF7', 5.33);
